From: patent US20250360145A1

Experiment: In vivo PK study (plasma and brain exposure)
Parameters: species or system CD1 mouse
Settings: male, serum, po; CD1 mouse, p.o. 45 mg/kg; Tables 5 and 6; read-out: PO-45mpk AUClast
Description: The PK profiles were determined in CD1 mouse, and all the procedures and protocols were in accordance with the National Institutes of Health Guide for the Care and Use of Laboratory Animals. The CD1 mouse were purchased from JH Laboratory Animal Co. LTD. The CD1 mouse (23-30 g, 6-8 weeks, male) were randomized and divided into five groups consisting of 21 mouse per group. […] Then, the blood samples and brain samples were further analyzed by LC-MS/MS (Triple Quad 6500+).
Values of AUC(0-t) strictly less than 200 µg·h/mL map to criterion met, and values of at least 200 µg·h/mL map to criterion not met.

AUC(0-t) under 200 µg·h/mL? Item: CNC(=O)c1cc(Oc2ccc3nc(N[C@@H]4CCCC[C@H]4O)sc3c2)ccn1 [BLZ945, reference compound]
criterion met

AUC(0-t) under 200 µg·h/mL? Item: COc1ccc(COc2ncc(Cc3ccnc(-c4cnn(C)c4)n3)cc2OC)nc1 [Comparator A, reference compound]
criterion met

AUC(0-t) under 200 µg·h/mL? Item: COc1cnc2c(Cc3cnc(OCc4cc5n(n4)C[C@H](OC)C5)c(OC)c3)ccnc2c1 [Example 136]
criterion met

AUC(0-t) under 200 µg·h/mL? Item: COc1cnc2c(Cc3cnc(OCc4ccc(C(F)(F)F)nc4)c(OC)c3)ccnc2c1 [Example 45]
criterion met

AUC(0-t) under 200 µg·h/mL? Item: COc1ccc(COc2ncc(Cc3ccnc4cc(OC)cnc34)cc2OC)nc1 [Example 16]
criterion not met

----------
Catalogue of molecules with associated clearance
assay: In vivo PK study (plasma and brain exposure); parameters: species or system CD1 mouse; settings: male, serum, iv; CD1 mouse, i.v. 2 mg/kg; read-out: IV-2mpk CL (converted)
Record the value in mL/min/kg, omitting the unit from your answer.

Would you please look over these solved cases?
| Molecule | clearance (mL/min/kg) |
| --- | --- |
| COc1ccc(COc2ncc(Cc3ccnc4cc(-c5ccn(C)n5)cnc34)cc2OC)nc1 | 17.7 |
| COc1ccc(COc2ncc(Cc3ccnc(-c4cnn(C)c4)n3)cc2OC)nc1 [Comparator A, reference compound] | 7.17 |
| COc1ccc(COc2ccc(Cc3cnc(N)nc3N)cc2OC)cc1 [GW2580, reference compound] | 36.7 |
| COc1cnc2c(Cc3cnc(OCc4ccc(C(F)(F)F)nc4)c(OC)c3)ccnc2c1 | 2.23 |
| COc1cnc2c(Cc3cnc(OCc4cc5n(n4)C[C@H](OC)C5)c(OC)c3)ccnc2c1 | 6.75 |
| COc1cnc2c(Cc3cnc(OCc4cc5n(n4)CCOC5)c(OC)c3)ccnc2c1 | 3.67 |
| COc1ccc(COc2ncc(Cc3ccnc4cc(N5CCN(C)CC5)cnc34)cc2OC)nc1 | 57.7 |
| COc1ccc(COc2ncc(Cc3ccnc4cc(OC)cnc34)cc2OC)nc1 | 7.47 |
| CNC(=O)c1cc(Oc2ccc3nc(N[C@@H]4CCCC[C@H]4O)sc3c2)ccn1 [BLZ945, reference compound] | 4.45 |

Reported clearance ( COc1ncc(F)cc1CNc1ccc(Cc2c[nH]c3ncc(C)cc23)c(F)n1 [PLX5622, reference compound] ) = 5.43

----------
Catalogue of molecules with associated pIC50
target: UniProt:P36888; experiment: Biochemical HTRF kinase assay, FLT3; conditions: recombinant human protein
Sequence (P36888 27-993): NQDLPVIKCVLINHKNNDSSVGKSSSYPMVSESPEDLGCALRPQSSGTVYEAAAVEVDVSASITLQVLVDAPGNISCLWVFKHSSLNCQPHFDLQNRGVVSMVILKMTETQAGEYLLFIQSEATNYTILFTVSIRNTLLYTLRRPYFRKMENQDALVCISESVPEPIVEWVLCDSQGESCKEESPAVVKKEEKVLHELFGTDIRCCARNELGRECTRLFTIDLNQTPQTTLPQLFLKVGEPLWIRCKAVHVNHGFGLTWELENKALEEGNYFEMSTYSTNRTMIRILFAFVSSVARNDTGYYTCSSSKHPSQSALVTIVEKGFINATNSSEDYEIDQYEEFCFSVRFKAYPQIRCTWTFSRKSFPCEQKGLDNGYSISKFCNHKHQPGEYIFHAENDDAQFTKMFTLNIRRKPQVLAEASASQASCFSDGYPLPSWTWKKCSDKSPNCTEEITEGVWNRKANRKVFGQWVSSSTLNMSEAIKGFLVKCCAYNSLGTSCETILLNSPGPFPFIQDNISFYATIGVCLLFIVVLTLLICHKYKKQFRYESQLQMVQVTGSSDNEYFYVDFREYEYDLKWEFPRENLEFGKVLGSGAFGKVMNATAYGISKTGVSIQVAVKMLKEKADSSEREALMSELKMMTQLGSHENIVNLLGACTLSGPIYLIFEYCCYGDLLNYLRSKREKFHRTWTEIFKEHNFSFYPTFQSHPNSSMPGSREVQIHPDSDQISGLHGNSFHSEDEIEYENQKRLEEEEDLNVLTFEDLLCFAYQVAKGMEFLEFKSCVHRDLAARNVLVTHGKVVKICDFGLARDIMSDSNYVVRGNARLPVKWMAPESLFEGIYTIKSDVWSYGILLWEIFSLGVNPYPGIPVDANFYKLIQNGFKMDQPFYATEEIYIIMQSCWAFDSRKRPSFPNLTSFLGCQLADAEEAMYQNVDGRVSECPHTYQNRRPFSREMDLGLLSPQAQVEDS
pIC50: −log10 of the molar value.

| Molecule | Reported measurement |
| --- | --- |
| COc1cnc2c(Cc3cnc(OCc4cc5n(n4)CC4CC54)c(OC)c3)ccnc2c1 (centres unmarked) | < 6.00 |
| [2H]C([2H])([2H])Oc1cnc2c(Cc3cnc(OCc4ccc(OC)cn4)c(OC)c3)ccnc2c1 | < 6.00 |
| [2H]C([2H])([2H])Oc1cc(Cc2ccnc3cc(OC)cnc23)cnc1OCc1ccc(OC)cn1 | < 6.00 |
| COc1cnc2c(Cc3cnc(OCc4cc(C)n(C5COC5)n4)c(OC)c3)ccnc2c1 | < 6.00 |
| COc1ccc(COc2ncc(Cc3ccnc4cc(N5CCN(C)CC5)cnc34)cc2OC)nc1 | < 6.00 |

Reported pIC50 ( COc1cnc2c(Cc3cnc(OCc4cc5n(n4)CCC5)c(OC)c3)ccnc2c1 ) = < 6.00

Reported pIC50 ( COc1cnc2c(Cc3cnc(OCc4ccc(OC(F)F)cn4)c(OC)c3)ccnc2c1 ) = < 6.00

Reported pIC50 ( COc1cnc2c(Cc3cnc(OCc4ccc(C5CC5)cn4)c(OC)c3)ccnc2c1 ) = < 6.00

----------
molecular target: UniProt:P07333; test: Biochemical HTRF kinase assay, CSF-1R; conditions: Table 2; recombinant human CSF-1R
Catalogue of molecules with associated IC50

| Molecule | Reported measurement |
| --- | --- |
| COc1cnc2c(Cc3ccn4nc(C5CCOCC5)cc4c3)ccnc2c1 | > 1000 nM |
| COCc1ccc(COc2ncc(Cc3ccnc4cc(OC)cnc34)cc2OC)nc1 | 25.4 nM |
| COc1cnc2c(Cc3cnc(OCc4cc5n(n4)CCO[C@H]5C)c(OC)c3)ccnc2c1 (stereo in doubt) [Example 115] | 4 nM |
| COc1cnc2c(Cc3cnc(OCc4ccc(C5CN(C)C5)cn4)c(OC)c3)ccnc2c1 | 286 nM |
| COc1ccc(COc2ncc(Cc3ccnc4cncnc34)cc2OC)nc1 | 64 nM |
| COc1cnc2c(Cc3cnc(OCc4cc5n(n4)CCC5)c(OC)c3)ccnc2c1 | 2.2 nM |
| COc1cnc2c(Cc3cnc(OCc4ccc(C5COC5)cn4)c(OC)c3)ccnc2c1 | 13.6 nM |

Lab note: next molecule to report on.
Reported IC50 ( COc1cnc2c(Cc3cc(OC)c4nc(N5CCC(OC)CC5)ncc4c3)ccnc2c1 ) = 947 nM

----------
assay: In vivo PK study (plasma and brain exposure); parameters: species or system CD1 mouse; details: male, CD1, brain, po; mouse, p.o. 45 mg/kg; BBB penetration
Record 1 whenever Kp uu is at 0.8 or higher; record -1 when lower.

Study these solved cases before continuing.
| Compound | Label class |
| --- | --- |
| COc1cnc2c(Cc3cnc(OCc4ccc(C(F)(F)F)nc4)c(OC)c3)ccnc2c1 [Example 45] | 1 |
| COc1cnc2c(Cc3cnc(OCc4cc5n(n4)C[C@H](OC)C5)c(OC)c3)ccnc2c1 [Example 136] | 1 |
| CNC(=O)c1cc(Oc2ccc3nc(N[C@@H]4CCCC[C@H]4O)sc3c2)ccn1 [BLZ945, reference compound] | -1 |
| COc1ccc(COc2ncc(Cc3ccnc4cc(OC)cnc34)cc2OC)nc1 [Example 16] | 1 |
| COc1cnc2c(Cc3cnc(OCc4cc5n(n4)CCOC5)c(OC)c3)ccnc2c1 [Example 73] | -1 |

Would you say COc1ccc(COc2ccc(Cc3cnc(N)nc3N)cc2OC)cc1 [GW2580, reference compound] shows Kp uu at minimum 0.8?
-1

Would you say COc1ccc(COc2ncc(Cc3ccnc(-c4cnn(C)c4)n3)cc2OC)nc1 [Comparator A, reference compound] shows Kp uu at minimum 0.8?
1

Would you say COc1ccc(COc2ncc(Cc3ccnc4cc(N5CCN(C)CC5)cnc34)cc2OC)nc1 [Example 116] shows Kp uu at minimum 0.8?
1

Would you say COc1ccc(COc2ncc(Cc3ccnc4cc(-c5ccn(C)n5)cnc34)cc2OC)nc1 [Example 134] shows Kp uu at minimum 0.8?
-1

Would you say COc1ncc(F)cc1CNc1ccc(Cc2c[nH]c3ncc(C)cc23)c(F)n1 [PLX5622, reference compound] shows Kp uu at minimum 0.8?
-1

----------
Catalogue of compounds with associated BPB-mouse (Bound) (%)
test: Brain protein binding study; type: in vitro ADME; conditions: mouse brain homogenate, equilibrium dialysis 4 hours
Record the value in %, omitting the unit from your answer.

Would you please look over these solved cases?
| Compound | Display unit | BPB-mouse (Bound) (%) |
| --- | --- | --- |
| CNC(=O)c1cc(Oc2ccc3nc(N[C@@H]4CCCC[C@H]4O)sc3c2)ccn1 [BLZ945, reference compound] | % | 96.94 |
| COc1ccc(COc2ncc(Cc3ccnc4cc(OC)cnc34)cc2OC)nc1 [Example 16] | % | 98.10 |
| COc1ccc(COc2ccc(Cc3cnc(N)nc3N)cc2OC)cc1 [GW2580, reference compound] | % | 98.72 |

Lab note: next compound to report on.
Reported BPB-mouse (Bound) (%) ( COc1ccc(COc2ncc(Cc3ccnc4cc(N5CCN(C)CC5)cnc34)cc2OC)nc1 [Example 116] ) = 95.5

----------
biological target: CSF-1R (Homo sapiens (Human), UniProt P07333); experiment: Biochemical HTRF kinase assay, CSF-1R; conditions: Table 2; recombinant human CSF-1R;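 further: enzyme incubated with inhibitor plus a substrate and ATP mix for one hour at room temperature before HTRF detection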
Sequence (P07333 20-972): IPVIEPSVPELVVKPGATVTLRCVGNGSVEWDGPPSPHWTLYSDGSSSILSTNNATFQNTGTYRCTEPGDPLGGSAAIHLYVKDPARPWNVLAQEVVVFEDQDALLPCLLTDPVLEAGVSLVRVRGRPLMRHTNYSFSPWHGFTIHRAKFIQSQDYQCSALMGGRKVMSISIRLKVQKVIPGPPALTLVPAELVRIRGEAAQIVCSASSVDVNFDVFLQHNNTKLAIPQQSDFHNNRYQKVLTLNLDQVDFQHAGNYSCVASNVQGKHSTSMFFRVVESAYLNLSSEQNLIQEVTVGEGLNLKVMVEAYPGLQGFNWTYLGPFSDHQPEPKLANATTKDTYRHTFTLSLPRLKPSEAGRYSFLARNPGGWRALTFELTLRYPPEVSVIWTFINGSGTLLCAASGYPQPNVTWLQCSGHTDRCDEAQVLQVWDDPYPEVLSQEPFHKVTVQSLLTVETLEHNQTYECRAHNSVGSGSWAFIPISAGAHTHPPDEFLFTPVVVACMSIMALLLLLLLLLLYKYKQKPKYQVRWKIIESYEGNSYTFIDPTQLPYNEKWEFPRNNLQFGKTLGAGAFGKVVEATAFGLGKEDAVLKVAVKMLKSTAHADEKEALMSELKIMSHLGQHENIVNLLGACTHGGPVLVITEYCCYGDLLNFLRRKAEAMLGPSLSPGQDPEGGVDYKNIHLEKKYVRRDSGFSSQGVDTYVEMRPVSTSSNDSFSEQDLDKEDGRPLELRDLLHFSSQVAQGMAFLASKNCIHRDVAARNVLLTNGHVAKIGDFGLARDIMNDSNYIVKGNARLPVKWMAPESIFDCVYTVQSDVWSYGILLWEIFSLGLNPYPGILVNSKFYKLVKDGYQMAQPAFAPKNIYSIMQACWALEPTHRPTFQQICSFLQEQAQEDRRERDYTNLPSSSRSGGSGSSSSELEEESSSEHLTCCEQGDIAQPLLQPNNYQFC
Values of IC50 strictly less than 5 nM map to Condition met, and values of at least 5 nM map to Condition not met.

Study these solved cases before continuing.
| Compound | Target | Label class |
| --- | --- | --- |
| COc1cnc2c(Cc3cnc(OCc4cc(C5CC5)n(C)n4)c(OC)c3)ccnc2c1 [Example 109] | CSF-1R (Homo sapiens (Human), UniProt P07333) | Condition met |
| COc1cnc2c(Cc3cnc(OCc4cc5n(n4)CCN(C)C5)c(OC)c3)ccnc2c1 [Example 75] | CSF-1R (Homo sapiens (Human), UniProt P07333) | Condition not met |
| CCc1cc(COc2ncc(Cc3ccnc4cc(OC)cnc34)cc2OC)on1 [Example 57] | CSF-1R (Homo sapiens (Human), UniProt P07333) | Condition not met |
| COc1ccc2c(Cc3ccc(OCc4ccc5ccnn5c4)c(OC)c3)ccnc2c1 [Example 20] | CSF-1R (Homo sapiens (Human), UniProt P07333) | Condition not met |
| COc1cnc2c(Cc3cnc(OCc4cc5n(n4)[C@@H]4C[C@@H]4C5)c(OC)c3)ccnc2c1 [Example 120] | CSF-1R (Homo sapiens (Human), UniProt P07333) | Condition met |
| COc1cnc2c(Cc3cnc(OCc4ccc(CN(C)C)cn4)c(OC)c3)ccnc2c1 [Example 85] | CSF-1R (Homo sapiens (Human), UniProt P07333) | Condition not met |

IC50 under 5 nM? Item: COc1ccc(COc2ncc(Cc3ccnc4cc(OC)cnc34)cc2OC(F)F)nc1 [Example 68]
Condition not met
